The reported numbers originate from patent EP4782453A1.

# Assayed System: Menin-MLL (Homo sapiens)
# Construct: His-Menin (M1-L615 end); purchased BIORTUS BP9210
# Protocol Text: Inhibitory activity against Menin-MLL binding (fluorescence polarization)
# Experimental Conditions: fluorescence polarization; 150 nM His-Menin, 15 nM FITC-MLL; 25°C for 60 min; read-out: Menin-MLL IC50
# Procedure: • His-Menin (M1-L615 end), purchased from BIORTUS, Catalog Number: BP9210; and • FITC-MLL4-43, purchased from GenScript, Catalog Number: C491HFF190-3/PE1324. In a 10 µL reaction solution (20 mM HEPES, pH 7.5, 50 mM NaCl, 1 mM DTT, 0.01% BSA) containing any compound from the examples, 150 nM His-Menin was added to a 384-well plate (Corning, Model: 4514). […] Changes in fluorescence polarization were measured using a plate reader (PerkinElmer, Envision 2104). […]
Kindly apply the following: t if IC50 is less than 20 nM, f in every other case.

> print(dat)
                                smiles.repr  classification
1  CCN(C(=O)c1cc(F)ccc1-c1cc([C@H]2CCN(C[C@]3(O)CC[C@H](NS(=O)(=O)CC)CC3)C2)cc2c1cnn2C)C(C)C               t
2  Cc1nc(F)c2c(-c3ccc(F)cc3C(=O)N3CCOC[C@H]3C)cc(C3CN([C@@H](CCCN4CCOCC4)C(C)C)C3)cn12               f
3  Cc1nc(F)c2c(-c3ccc(F)cc3C(=O)N3CCOC[C@H]3C)cc(C3CN([C@@H](C)C4CCN(C(=O)C(F)F)CC4)C3)cn12               f
4  CCN(C(=O)c1cc(F)ccc1-c1cc(C2CN([C@H](CCCN3CCN[C@@H](COC)C3)C(C)C)C2)cn2c(C)ncc12)C(C)C               t
5  Cc1nc(F)c2c(-c3ccc(F)cc3C(=O)N3[C@H](C)COC[C@H]3C)cc(C3CN(CC4CCN(C(=O)CC#N)CC4)C3)cn12               t
6  Cc1nc(F)c2c(-c3ccc(F)cc3C(=O)N(CC(F)F)C(C)C)cc(C3CN(C(=O)[C@@H]4C[C@@H](C)CCN4)C3)cn12               f

---

Collected pIC50 values appear next to each entry.
# Assayed System: Menin-MLL (Homo sapiens, UniProt O00255)
# Construct: His-Menin (M1-L615 end); purchased BIORTUS BP9210
# Sequence (O00255 1-615 isoform O00255-1): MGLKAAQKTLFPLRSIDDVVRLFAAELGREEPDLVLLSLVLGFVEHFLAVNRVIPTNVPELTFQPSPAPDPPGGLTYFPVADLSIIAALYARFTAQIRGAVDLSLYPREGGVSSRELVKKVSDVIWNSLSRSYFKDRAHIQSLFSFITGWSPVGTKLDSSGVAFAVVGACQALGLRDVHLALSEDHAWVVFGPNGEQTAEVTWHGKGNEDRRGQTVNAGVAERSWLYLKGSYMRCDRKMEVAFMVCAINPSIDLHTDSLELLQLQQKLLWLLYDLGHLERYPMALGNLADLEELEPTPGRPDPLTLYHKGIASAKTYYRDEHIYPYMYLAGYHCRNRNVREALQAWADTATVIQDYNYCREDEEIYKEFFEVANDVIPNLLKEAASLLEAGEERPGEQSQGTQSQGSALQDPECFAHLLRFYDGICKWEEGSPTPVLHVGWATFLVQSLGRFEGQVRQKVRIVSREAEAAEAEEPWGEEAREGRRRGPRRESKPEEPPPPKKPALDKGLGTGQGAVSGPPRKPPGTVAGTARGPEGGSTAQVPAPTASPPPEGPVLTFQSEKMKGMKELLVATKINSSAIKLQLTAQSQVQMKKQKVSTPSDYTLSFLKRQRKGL
# Protocol Text: Inhibitory activity against Menin-MLL binding (fluorescence polarization)
# Experimental Conditions: fluorescence polarization; 150 nM His-Menin, 15 nM FITC-MLL; 25°C for 60 min; read-out: Menin-MLL IC50
pIC50: −log10 of the molar value.
Recorded Metric: pIC50

> print(dat)
                                smiles.repr  observed.result
1  Cc1nc(F)c2c(-c3ccc(F)cc3C(=O)N3[C@H](C)COC[C@H]3C)cc(C3CN(CC4CCN(C(=O)c5cnoc5)CC4)C3)cn12             7.38
2  Cc1ncc2c(-c3ccc(F)cc3C(=O)N(CC(F)F)C(C)C)cc(C3CN([C@H](CCCN4CCN(CCO)CC4)C(C)C)C3)cn12             8.72
3  CCS(=O)(=O)N[C@H]1CC[C@H](CN2CC(c3cc(-c4ccc(F)cc4C(=O)N(CC(F)F)C(C)C)c4cnc(C)n4c3)C2)CC1             8.22
